- target or system: DCAF15/RBM39 (Homo sapiens, UniProt Q14498+Q66K64)
- test protocol: AlphaLISA compound-induced DCAF15-RBM39 ternary complex formation
- assay setup: His-tagged DCAF15 complex and biotin-carrying RBM39
- Procedure: Example 6: Quantitative Evaluation of Compound-Induced Ternary Complex Formation Using Amplified Luminescent Proximity Homogeneous Assay Compound-induced DCAF15-RBM39 ternary complex formation was monitored using AlphaLISA® assays (Perkin Elmer, Waltham, MA). […] Signals were recorded using EnVision 2104 Multilabel Plate Reader (Perkin Elmer, Waltham, MA) and titration curves were generated in GraphPad Prism (7.00, GraphPad, La Jolla, CA).
# Lookup of reported EC50 keyed by entry
observation type: EC50

[
  {
    "molecule": "O=S(=O)(Nc1ccc(Cl)c2c(Cl)c[nH]c12)c1ccc(Oc2ccc(Br)cc2)cc1",
    "result": "10000 to 100000 nM"
  },
  {
    "molecule": "Cc1cnc(CNC(=O)c2ccc(S(=O)(=O)Nc3ccc(Cl)c4c(Cl)c[nH]c34)c(F)c2)cn1",
    "result": "> 100000 nM"
  },
  {
    "molecule": "CNCCCCCOc1ccc(S(=O)(=O)Nc2ccc(Cl)c3c(Cl)c[nH]c23)cc1",
    "result": "< 1000 nM"
  },
  {
    "molecule": "O=C(COc1ccc(S(=O)(=O)Nc2ccc(Cl)c3c(Cl)c[nH]c23)cc1)NC1CC1",
    "result": "< 1000 nM"
  },
  {
    "molecule": "CC(C)(C)OC(=O)NC1(CNC(=O)c2ccc(S(=O)(=O)Nc3ccc(Cl)c4c(Cl)c[nH]c34)c(F)c2)CC1",
    "result": "1000 to 10000 nM"
  },
  {
    "molecule": "O=S(=O)(Nc1ccc(Cl)c2c(Cl)c[nH]c12)c1cccc(OCCCC2CCNCC2)c1",
    "result": "1000 to 10000 nM"
  },
  {
    "molecule": "O=S(=O)(Nc1ccc(Cl)c2c(Cl)c[nH]c12)c1ccc(OCCCCc2ccccn2)cc1",
    "result": "1000 to 10000 nM"
  },
  {
    "molecule": "O=C(N[C@H]1CCCCNC1=O)c1ccc(S(=O)(=O)Nc2ccc(Cl)c3c(Cl)c[nH]c23)c(F)c1",
    "result": "< 1000 nM"
  },
  {
    "molecule": "CC(C)CNC(=O)c1ccc(S(=O)(=O)Nc2ccc(Cl)c3c(Cl)c[nH]c23)c(F)c1",
    "result": "< 1000 nM"
  },
  {
    "molecule": "CN1C[C@@H](NC(=O)c2cccc(S(=O)(=O)Nc3ccc(Cl)c4c(Cl)c[nH]c34)c2F)CCC1=O",
    "result": "< 1000 nM"
  },
  {
    "molecule": "NC1CCC(Oc2ccc(S(=O)(=O)Nc3ccc(Cl)c4c(Cl)c[nH]c34)cc2)CC1 (centres unmarked)",
    "result": "< 1000 nM"
  },
  {
    "molecule": "O=C(NC1CC1)c1ccc(S(=O)(=O)Nc2ccc(Cl)c3c(Cl)c[nH]c23)cc1",
    "result": "< 1000 nM"
  },
  {
    "molecule": "CC[C@H](NC(=O)c1ccc(S(=O)(=O)Nc2ccc(Cl)c3c(Cl)c[nH]c23)c(F)c1)c1ccc2c(c1)OCCO2",
    "result": "1000 to 10000 nM"
  },
  {
    "molecule": "CCS(=O)(=O)CCNC(=O)c1cccc(S(=O)(=O)Nc2ccc(Cl)c3c(Cl)c[nH]c23)c1F",
    "result": "< 1000 nM"
  },
  {
    "molecule": "N#Cc1ccc(Oc2ccc(S(=O)(=O)Nc3ccc(Cl)c4c(Cl)c[nH]c34)cc2)cc1",
    "result": "1000 to 10000 nM"
  },
  {
    "molecule": "O=c1oc2ccccc2n1CCCOc1ccc(S(=O)(=O)Nc2ccc(Cl)c3c(Cl)c[nH]c23)cc1",
    "result": "1000 to 10000 nM"
  },
  {
    "molecule": "COc1cccc(Oc2ccc(CNC(=O)c3ccc(S(=O)(=O)Nc4ccc(Cl)c5c(Cl)c[nH]c45)c(F)c3)cn2)c1",
    "result": "> 100000 nM"
  },
  {
    "molecule": "O=S(=O)(Nc1ccc(Cl)c2c(Cl)c[nH]c12)c1ccc(OCCCC2CCNCC2)cc1",
    "result": "< 1000 nM"
  },
  {
    "molecule": "O=C(NS(=O)(=O)c1ccc(Br)s1)c1ccc(Cl)cc1Cl [Tasisulam, tasisulam, reference compound]",
    "result": "1000 to 10000 nM"
  },
  {
    "molecule": "O=C(c1ccc(S(=O)(=O)Nc2ccc(Cl)c3c(Cl)c[nH]c23)c(F)c1)N1CC(N2CCc3ccccc32)C1",
    "result": "1000 to 10000 nM"
  },
  {
    "molecule": "CN1CC(CCNC(=O)c2cccc(S(=O)(=O)Nc3ccc(Cl)c4c(Cl)c[nH]c34)c2F)C1",
    "result": "< 1000 nM"
  },
  {
    "molecule": "O=C(c1cccc(S(=O)(=O)Nc2ccc(Cl)c3c(Cl)c[nH]c23)c1F)N1CCc2[nH]c(-c3ccccc3)nc2C1",
    "result": "< 1000 nM"
  },
  {
    "molecule": "Cc1ccccc1Oc1ccccc1CNC(=O)c1cccc(S(=O)(=O)Nc2ccc(Cl)c3c(Cl)c[nH]c23)c1F",
    "result": "1000 to 10000 nM"
  },
  {
    "molecule": "Cc1nc(-c2ccc(COc3ccc(S(=O)(=O)Nc4ccc(Cl)c5c(Cl)c[nH]c45)cc3)cc2)no1",
    "result": "> 100000 nM"
  },
  {
    "molecule": "O=C(NCCOC1CCS(=O)(=O)CC1)c1ccc(S(=O)(=O)Nc2ccc(Cl)c3c(Cl)c[nH]c23)c(F)c1",
    "result": "< 1000 nM"
  },
  {
    "molecule": "O=S(=O)(Nc1ccc(Cl)c2c(Cl)c[nH]c12)c1cccc(OCc2cccc(OC(F)F)c2)c1",
    "result": "1000 to 10000 nM"
  },
  {
    "molecule": "O=C(NCCCC(=O)N1CCCC1)c1ccc(S(=O)(=O)Nc2ccc(Cl)c3c(Cl)c[nH]c23)c(F)c1",
    "result": "< 1000 nM"
  },
  {
    "molecule": "Cn1nnc2cc(COc3ccc(S(=O)(=O)Nc4ccc(Cl)c5c(Cl)c[nH]c45)cc3)ccc21",
    "result": "< 1000 nM"
  },
  {
    "molecule": "CN1CC(CCNC(=O)c2ccc(S(=O)(=O)Nc3ccc(Cl)c4c(Cl)c[nH]c34)c(F)c2)C1",
    "result": "< 1000 nM"
  }
]

Cited source for all entries: patent US20240327351A1
